Below, each entry is listed alongside its reported OD450.
Target: T1, Peptide 4: Biotin-AGGGGSGGGGSGGGGSAAA-Tyr-acid (N-terminal biotin; C-terminal acid)
T1 construct: Control peptide without PC
T1 peptide: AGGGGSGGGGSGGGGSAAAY
Test: scFv ELISA
Express the result in OD450 but write the number alone.

{"columns": ["BINDER", "UNIT", "OD450"],
 "data": [
  ["PcOxP_DB03_C10 (scFv, V domains shown, scFv in periplasmic extract) VH: EVQLLESGGGLVQPGGSLRLSCAASGFTFSSYYMEWVRQAPGKGLEWVAASRNKANEYTTEYADSVKGRFTISRDNSKNTLYLQMNSLRAEDTAVYYCARDYYGSSYWYFDVWGQGTLVTVSS VL: DIVMTQSPDSLAVSLGERATINCTASESLYSSKHKVHYLAWYQQKPGQPPKLLIYGAGNRYIGVPDRFSGSGSGTDFTLTISSLQAEDVAVYYCAQFYSYPLTFGGGTKVEIK", "OD450", 0.05]
]}

Next binder, OD450 to be filled in.
Task: Could you share which OD450 value was measured for PcOxP_DB04_F05 (scFv, V domains shown, scFv in periplasmic extract) VH: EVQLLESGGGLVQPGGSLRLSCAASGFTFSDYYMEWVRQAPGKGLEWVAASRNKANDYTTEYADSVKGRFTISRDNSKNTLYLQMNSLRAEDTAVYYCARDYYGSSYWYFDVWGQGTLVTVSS VL: DIVMTQSPDSLAVSLGERATINCTASESLYSSNHKVHYLAWYQQKPGQPPKLLIYGVSNRYIGVPDRFSGSGSGTDFTLTISSLQAEDVAVYYCAQFYSYPLTFGGGTKVEIK ?
Output: 0.06
